Listing of recorded protein stability index by entry.
- Tested on: Saccharomyces cerevisiae;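 further: PSI is a weighted mean of sequencing reads over stability bins, variants kept only with over 10 reads, mCherry proximal and sfGFP distal, peptide attached via GGGS linker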
- test.details: protein stability index of tFT-peptide fusion (C-terminal peptide) (PSI (0-1 scale)); higher = more stable (slower turnover)
- recorded.conditions: genetic background: wild type; temperature: 30 C
recorded.endpoint: protein stability index

[[record]]
sequence_string = "GYGSSVYAVQKL"
recorded_endpoint = "protein stability index"
reported_value = 0.608

[[record]]
sequence_string = "VYSSVPGRIAID"
recorded_endpoint = "protein stability index"
reported_value = 0.708

[[record]]
sequence_string = "SQLKHLPPDREC"
recorded_endpoint = "protein stability index"
reported_value = 0.679

[[record]]
sequence_string = "MKRLTCGGFNLE"
recorded_endpoint = "protein stability index"
reported_value = 0.704

[[record]]
sequence_string = "HEGAISLCRQTC"
recorded_endpoint = "protein stability index"
reported_value = 0.592

[[record]]
sequence_string = "SASVARSRRCVR"
recorded_endpoint = "protein stability index"
reported_value = 0.612

[[record]]
sequence_string = "SSPNPPRELGPY"
recorded_endpoint = "protein stability index"
reported_value = 0.607

[[record]]
sequence_string = "SRPTSGPPQPPL"
recorded_endpoint = "protein stability index"
reported_value = 0.707

[[record]]
sequence_string = "YWGFHPCCAFGY"
recorded_endpoint = "protein stability index"
reported_value = 0.711

